# Measured On: AgamOBP20 (Anopheles gambiae)
# Sequence (Q7Q9J3 24-142): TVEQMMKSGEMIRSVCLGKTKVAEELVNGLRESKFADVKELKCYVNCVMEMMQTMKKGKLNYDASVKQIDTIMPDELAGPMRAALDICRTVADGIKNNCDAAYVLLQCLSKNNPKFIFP
Measure Name: Kd (nM)
Quick note: give the figure in nM, leave out the unit.

IN: Request - read-out Kd | tested on AgamOBP20 (Anopheles gambiae) | compound "c1ccc(Nc2cccc3ccccc23)cc1"
OUT: 2170

====

# Measured On: AgamOBP4 (Anopheles gambiae)
# Sequence (Q8T6R7 26-150): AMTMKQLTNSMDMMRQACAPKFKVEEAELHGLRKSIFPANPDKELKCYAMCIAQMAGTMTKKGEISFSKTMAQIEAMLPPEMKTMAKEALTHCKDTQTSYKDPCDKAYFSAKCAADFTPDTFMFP
Measure Name: pKd
Scale note: pKd = -log10(concentration in M).

IN: For the compound shown here, c1ccc(Nc2cccc3ccccc23)cc1 [1-NPN, 1-N-phenyl-naphthylamine] , give the reported pKd.
OUT: 5.94
